- Tested on: Staphylococcus aureus ATCC 6538
- measurement-description: DGHM suspension test, microbicidal activity
- Format: cell-based
- cond: CU 100 mg/l; contact time 15 mins.
test-readout: logarithmic reduction factor

Need logarithmic reduction factor, item CCCCCCCCCC(=O)OCC[N+](C)(C)CCOC(=O)CCCCCCCCC.COS(=O)(=O)[O-] [Example 10] >5.55

Need logarithmic reduction factor, item CCCCCCCCCC(=O)OCC[N+](C)(CCOC(=O)CCCCCCCCC)CCOC(=O)CCCCCCCCC.COS(=O)(=O)[O-] [Example 9] <1.59

Need logarithmic reduction factor, item CCCCCCCC(=O)OCC[N+](C)(CCOC(=O)CCCCCCC)CCOC(=O)CCCCCCC.COS(=O)(=O)[O-] [Example 2] >5.38

Need logarithmic reduction factor, item CCCCCCCC(=O)OCC[N+](C)(C)CCOC(=O)CCCCCCC.COS(=O)(=O)[O-] [Example 1] <1.71

Need logarithmic reduction factor, item CCCCCCCC(=O)OCC[N+](C)(CCO)CCOC(=O)CCCCCCC.COS(=O)(=O)[O-] [Example 7] >5.53

Need logarithmic reduction factor, item CCCCCCCCCC(=O)OCC[N+](C)(CCO)CCOC(=O)CCCCCCCCC.COS(=O)(=O)[O-] [Example 6] >5.73

Need logarithmic reduction factor, item CCCCCCCCCCCC(=O)OCC[N+](C)(C)CCOC(=O)CCCCCCCCCCC.COS(=O)(=O)[O-] [Example 8] 3.40

Need logarithmic reduction factor, item CCCCCCCCCCCC(=O)OCC[N+](C)(CCO)CCOC(=O)CCCCCCCCCCC.COS(=O)(=O)[O-] [Example 5] 2.38

Need logarithmic reduction factor, item CCCCCCCCC(=O)OCC[N+](C)(C)CCOC(=O)CCCCCCCC.COS(=O)(=O)[O-] [Example 3] 3.67

----------
- Tested on: Candida albicans ATCC 10231
- measurement-description: DGHM suspension test, microbicidal activity
- Assay type: cell-based
- cond: CU 50 mg/l; contact time 60 mins.
logarithmic reduction factor: recorded values

| chemical-smiles | reported-value |
| --- | --- |
| CCCCCCCCC(=O)OCC[N+](C)(C)CCOC(=O)CCCCCCCC.COS(=O)(=O)[O-] | >4.67 |
| CCCCCCCC(=O)OCC[N+](C)(C)CCOC(=O)CCCCCCC.COS(=O)(=O)[O-] | <0.36 |
| CCCCCCCCCC(=O)OCC[N+](C)(CCO)CCOC(=O)CCCCCCCCC.COS(=O)(=O)[O-] | 2.62 |
| CCCCCCCCCC(=O)OCC[N+](C)(C)CCOC(=O)CCCCCCCCC.COS(=O)(=O)[O-] | >4.80 |

Need logarithmic reduction factor, item CCCCCCCC(=O)OCC[N+](C)(CCO)CCOC(=O)CCCCCCC.COS(=O)(=O)[O-] >4.27

Need logarithmic reduction factor, item CCCCCCCC(=O)OCC[N+](C)(CCOC(=O)CCCCCCC)CCOC(=O)CCCCCCC.COS(=O)(=O)[O-] >4.68

----------
- Tested on: Candida albicans ATCC 10231
- measurement-description: DGHM suspension test, microbicidal activity
- Assay type: cell-based
- cond: CU 100 mg/l; contact time 60 mins.
test-readout: logarithmic reduction factor

Sample records with logarithmic reduction factor:
| compound | tested-target | logarithmic reduction factor |
| --- | --- | --- |
| CCCCCCCCCC(=O)OCC[N+](C)(CCO)CCOC(=O)CCCCCCCCC.COS(=O)(=O)[O-] [Example 6] | Candida albicans ATCC 10231 | 4.15 |
| CCCCCCCCC(=O)OCC[N+](C)(C)CCOC(=O)CCCCCCCC.COS(=O)(=O)[O-] [Example 3] | Candida albicans ATCC 10231 | >4.67 |
| CCCCCCCCCC(=O)OCC[N+](C)(C)CCOC(=O)CCCCCCCCC.COS(=O)(=O)[O-] [Example 10] | Candida albicans ATCC 10231 | >4.80 |
| CCCCCCCC(=O)OCC[N+](C)(CCOC(=O)CCCCCCC)CCOC(=O)CCCCCCC.COS(=O)(=O)[O-] [Example 2] | Candida albicans ATCC 10231 | >4.68 |
| CCCCCCCC(=O)OCC[N+](C)(CCO)CCOC(=O)CCCCCCC.COS(=O)(=O)[O-] [Example 7] | Candida albicans ATCC 10231 | >4.27 |

# next compound below
Find the measured logarithmic reduction factor: item CCCCCCCC(=O)OCC[N+](C)(C)CCOC(=O)CCCCCCC.COS(=O)(=O)[O-] [Example 1] , target or system Candida albicans ATCC 10231. 0.70
